Each entry below carries its recorded AUC(0-t).
- Test Name: PK in mice after intravenous bolus
- Format: in vivo
- Details: male, Swiss Albino, mouse, plasma, 1 mg/kg intravenous bolus

{"columns": ["Smiles Code", "Display Unit", "AUC(0-t)"],
 "data": [
  ["N#C[C@@H]1CCCN1C(=O)[C@@H]1C[C@@H](F)CN1C(=O)c1cc(F)c(OCc2ccccc2)c(F)c1", "ng·h/mL", 127],
  ["N#C[C@@H]1CCCN1C(=O)[C@@H]1CC(F)(F)CN1C(=O)c1ccc(OCc2ccccc2)c(F)c1", "ng·h/mL", 22.7],
  ["COc1cc(C(=O)N2CC(F)(F)C[C@H]2C(=O)N2CCC[C@H]2C#N)cc(OC)c1OCc1ccccc1", "ng·h/mL", 131]
]}
